The values you see were collected from PubChem BioAssay.

METHOD NOTES: basal MM1S mitochondrial membrane potential changes, profiling panel, cell-based, JC-1 fluorescence, 24 h, 100 nL compound (AID 1170); further: test concentration not given here
EXPERIMENTAL CONTEXT: higher = more signal
Below, each entry is listed with its recorded z-score.

{"LINE NOTATION": "CO[C@H]1O[C@H](CO)[C@@H](OC(=O)Nc2ccc(Oc3ccccc3)cc2)[C@H](OC(=O)Nc2ccccc2-c2ccccc2)[C@H]1OC(=O)Nc1ccccc1-c1ccccc1", "z-score": -1.81}
{"LINE NOTATION": "O=C1O[C@H](c2ccccc2)[C@H](c2ccccc2)N2[C@H]1[C@@H](C(=O)Nc1nc3ccccc3s1)[C@]1(C(=O)Nc3ccc(C#CC4(O)CCCCCC4)cc31)[C@H]2c1ccc(O)cc1", "z-score": -0.676}
{"LINE NOTATION": "C=CCc1cccc([C@@H]2[C@@H](C)CC[C@H]3C(=O)N4[C@H](c5cccc(CC=C)c5)[C@@H](C)CC[C@H]4C(=O)N23)c1", "z-score": -1.28}

* * *

Reported composite z-score values for a set of compounds
METHOD NOTES: small-molecule binders of probe aInhba, primary screen, biochemical, small-molecule microarray, 635/667 nm fluorescence (AID 1148);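 further: score merges 667nm spot fluorescence with signal-to-noise for antibody binding to printed compounds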
EXPERIMENTAL CONTEXT: higher = more signal
VALUE TYPE: composite z-score

{"COMPOUND": "C=C(C)[C@@H]1CC=C(C(O)C2C=CC3C(=O)NC(=O)C3N2Nc2ccccn2)CC1 (stereo not given in full)", "MEASUREMENT": 0.093}
{"COMPOUND": "[N-]=[N+]=NCc1ccccc1C[C@@]1(C(=O)O)N=C(c2ccc(OCCCO)cc2)O[C@@H]1c1ccccc1N=[N+]=[N-]", "MEASUREMENT": 0.0073}
{"COMPOUND": "COCCCNC(=O)[C@@]1(Sc2ccc(C)cc2)CC(=O)N(Cc2cc(C(F)(F)F)cc(C(F)(F)F)c2)[C@@H]1c1ccc(CO)cc1I", "MEASUREMENT": -0.123}
{"COMPOUND": "C[C@@H]1CC[C@H]2C(=O)N3[C@@H](CC[C@@H](C)[C@@H]3c3cccc(N4CCOCC4)c3)C(=O)N2[C@H]1c1cccc(N2CCOCC2)c1", "MEASUREMENT": -0.278}
{"COMPOUND": "CC(=O)NCCCC[C@@H]1NC(=O)[C@@H]2C[C@H](C(=O)NCCCCCCN(C)C)[C@H](c3ccc(O)cc3)N2C1=O", "MEASUREMENT": 0.982}
{"COMPOUND": "O=C(NCc1ccccc1)[C@@]1(CCS(=O)(=O)c2ccccc2)COC(c2ccc(OCCCO)cc2)=N1", "MEASUREMENT": 0.281}
{"COMPOUND": "C[C@H]1COC(=O)[C@H](Cc2ccccc2)NC(=O)[C@@H](C)COC(=O)[C@H](Cc2ccccc2)NC1=O", "MEASUREMENT": -0.0523}
{"COMPOUND": "O=C(N1CCCCC1)[C@@]1(CCS(=O)(=O)c2ccccc2)N=C(c2ccc(OCCCO)cc2)O[C@H]1c1ccccc1", "MEASUREMENT": -0.0112}
{"COMPOUND": "C[N+](C)(C)CCCC[C@@H]1NC(=O)[C@H]2C[C@@H](C(=O)NCc3ccc(F)cc3)[C@@H](c3cccc(OCCO)c3)N2C1=O", "MEASUREMENT": -0.0963}
{"COMPOUND": "Cc1ccc(N2C(=O)c3ccccc3[C@](C)(C(=O)NCC(C)C)[C@@H]2c2ccc(CO)cc2)nc1", "MEASUREMENT": -0.147}
{"COMPOUND": "COc1ccc(NN2C(C(O)c3cc(OC)c(OC)c(OC)c3)C=CC3C(=O)N(C4CCCCC4)C(=O)C32)cc1 (stereo not given)", "MEASUREMENT": 0.294}
{"COMPOUND": "C=CCC(OC(C)=O)[C@@H]1[C@@H](N(Cc2ccc(-c3ccccc3)cc2)C(=O)c2ccc(-c3ccccc3)cc2)c2cc(OCCCO)ccc2N1C(=O)Cc1ccc(OC)cc1 (stereo not given in full)", "MEASUREMENT": -0.0774}
{"COMPOUND": "O=C/C=C/c1ccc(/C=C/c2ccccc2)cc1", "MEASUREMENT": -0.128}
{"COMPOUND": "C[C@@H]1CC[C@H]2C(=O)N3CCC[C@H]3C(=O)N2[C@H]1c1ccc(Br)cc1", "MEASUREMENT": -0.0986}
{"COMPOUND": "CO[C@@H]1COC(=O)[C@@H]2CCCN2C(=O)CC=C[C@@H](C)[C@H](OC)COC(=O)[C@@H]2CCCN2C(=O)CC=C[C@H]1C", "MEASUREMENT": -0.179}
{"COMPOUND": "CCOC(=O)C[C@H]1[C@H](OC(=O)Cc2ccc3c(c2)OCO3)[C@@H](NC(=O)c2ccc3ccccc3c2)c2cc(OCCCO)ccc2N1C(=O)Cc1ccc(OC)cc1", "MEASUREMENT": 0.386}
{"COMPOUND": "CO[C@H]1O[C@H](CO)[C@@H](OC(=O)Nc2ccc3c(c2)OCO3)[C@H](OC(=O)Nc2ccccc2)[C@@H]1OC(=O)Nc1ccccc1", "MEASUREMENT": 0.0398}
{"COMPOUND": "CC[C@H]1C2=C3C(CC[C@H]4C(OC)OC[C@](C)([C@@H]34)N(C(=O)OC(C)(C)C)C2)C(CO)C1CO (stereo not given in full)", "MEASUREMENT": 0.34}
{"COMPOUND": "CCN1C(C)=C(C(=O)OC)[C@@H](c2ccccc2)N2C(=O)[C@@]3(C(=O)OC)O[C@@]12[C@@H]1C(=O)CCC[C@@H]13", "MEASUREMENT": 0.115}
{"COMPOUND": "COCCOC(=O)N1C(=O)[C@@]2(c3cc(C#CCNC(N)=O)ccc31)[C@H](c1ccccc1OCCO)N1[C@H](c3ccccc3)[C@H](c3ccccc3)OC(=O)[C@H]1[C@@H]2C(=O)NC[C@H](O)c1ccccc1", "MEASUREMENT": -0.0375}
